Source: PubChem BioAssay (NCI)

# Test system: IGROV1 ovarian
# TEST_NAME: NCI tumour cell line growth inhibition, 48 h
READOUT_TYPE: TGI

Use the examples below as a reference point.
- MOLECULE: "CCc1cccc(NC(=O)Nc2ccc(Oc3ccc4nc(NC(=O)OC)[nH]c4c3)cc2)c1"
  TGI: "> 25 µM"
- MOLECULE: "CSc1ccc2c(cc1=O)C(NC(=O)c1ccccc1)CCc1cc(O)c(O)c(O)c1-2 (stereo unspecified)"
  TGI: "66.1 µM"
- MOLECULE: "Cn1c2ccccc2c2c3c(c4c5ccccc5n(C5OC(CO)C(O)C(O)C5O)c4c21)C(=O)OC3=O (stereo unspecified)"
  TGI: "> 100 µM"
- MOLECULE: "CC(C)CNCCc1ccccn1"
  TGI: "> 100 µM"
- MOLECULE: "Brc1ccc(C=NC23CC4CC(CC(C4)C2)C3)cc1"
  TGI: "> 100 µM"

Dear colleague, I am looking for the recorded TGI of the following molecule: `OCCN(CCO)c1nc(N2CCCCC2)c2nc(N(CCO)CCO)nc(N3CCCCC3)c2n1`
> 100 µM

Please report the recorded TGI for `CCCCc1nc(C)oc1C(C)C` .
> 100 µM
